# TARGET: T1, Human PD-1 protein with histidine and avi tags (ACRO Biosystems, PD1-H82E4) (human, UniProt Q15116 25-167)
# T1 construct: Captured on streptavidin (SA) sensors in the BLI assay; not shown: histidine and avi tags
# T1 sequence (Q15116 25-167 limits assumed): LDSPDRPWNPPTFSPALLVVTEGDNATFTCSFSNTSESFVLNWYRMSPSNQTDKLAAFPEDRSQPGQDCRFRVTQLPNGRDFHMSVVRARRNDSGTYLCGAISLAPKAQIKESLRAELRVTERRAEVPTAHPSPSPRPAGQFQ
# EXPERIMENTAL PROTOCOL: BLI (Octet Red96e), PD-1 captured on SA sensor, 1:1 local fit
Readings of koff for the listed binders
Answer format: numeric, s⁻¹ implied, no suffix.

The following binders have reported results that may help.
{"columns": ["BINDER", "koff, s⁻¹"],
 "data": [
  ["PR005102 (VHH, Monovalent single-domain (VH) variant of PR002481 with Flag-6His tag) VHH: EVQLVETGGGLIQPGGSLRLSCAASGFNVSSHYMSWVRQAPGKGREWVSIIDRGGSTYYADSVKGRFTISRDNSKNRLYLQMNSLRAEDTAMYYCARATAVAEKNGYNYPFNYWGQGTLVTVSS", 0.000268],
  ["PR005147 (VHH, Monovalent single-domain (VH) variant of PR002481 with Flag-6His tag) VHH: EVQLVETGGGLIQPGGSLRLSCAASGFNVSYYYMSWVRQAPGKGREWVSIIDKAGSTYYGASVKGRFTISRDNSKNRLYLQMNSLRAEDTAMYYCARATMVREKNGYNYPFNYWGQGTLVTVSS", "2.74e-05"],
  ["PR005572 (antibody, human IgG1, V domains shown, no light chain; also called anti-PD1 PR002481Com_32 HCAb hIgG1) VH: EVQLVETGGGLIQPGGSLRLSCAASGFNVAFYYMSWVRQAPGKGREWVSIIDKGGSTYYADSVKGRFTISRDNSKNRLYLQMNSLRAEDTAMYYCARATEVREKQGYNYPFNYWGQGTLVTVSS", "4.28e-05"],
  ["PR005583 (antibody, human IgG1, V domains shown, no light chain; also called anti-PD1 PR002481Com_29 HCAb hIgG1) VH: EVQLVETGGGLIQPGGSLRLSCAASGFNVASFYMSWVRQAPGKGREWVSIIDKAGSTYYADSVKGRFTISRDNSKNRLYLQMNSLRAEDTAMYYCARATEVREKQGYNYPFNYWGQGTLVTVSS", "1.65e-05"],
  ["PR005146 (VHH, Monovalent single-domain (VH) variant of PR002481 with Flag-6His tag) VHH: EVQLVETGGGLIQPGGSLRLSCAASGFNVSFHYMSWVRQAPGKGREWVSIIDGAGSGYYAASVKGRFTISRDNSKNRLYLQMNSLRAEDTAMYYCARATMVREKQGYNYPFNYWGQGTLVTVSS", 0.000605]
]}

Value of measured koff for the entry PR005100 (VHH, Monovalent single-domain (VH) variant of PR002481 with Flag-6His tag) VHH: EVQLVETGGGLIQPGGSLRLSCAASGFNVSSHYMSWVRQAPGKGREWVSIIDRGGSKYYADSVKGRFTISRDNSKNRLYLQMNSLRAEDTAMYYCARATAVAEKNGYNYPFNYWGQGTLVTVSS : 0.000301

Value of measured koff for the entry PR005141 (VHH, Monovalent single-domain (VH) variant of PR002481 with Flag-6His tag) VHH: EVQLVETGGGLIQPGGSLRLSCAASGFNVSYFYMSWVRQAPGKGREWVSIIDKGGSGYYAASVKGRFTISRDNSKNRLYLQMNSLRAEDTAMYYCARATEVREKNGYNYPFNYWGQGTLVTVSS : 7.75e-05

Sourced from patent US20240034792A1
